Data origin: ChEMBL document CHEMBL3046541

- System: Monascus purpureus
- measurement notes: Antifungal activity against Monascus purpureus MTCC 369 at 200 ug/ml after 72 hr by cup-plate method
- Type: functional
- experimental setup: MTCC 369, 72 h, read-out: IZ
Parameter threshold = 8 mm. Response is Criterion met when zone of inhibition at 200 µg/mL meets or exceeds it, else Criterion not met.

{"mol": "Clc1ccc(NCc2cc3ccccc3nc2Cl)cc1", "target entity": "Monascus purpureus", "class assignment": "Criterion met"}
{"mol": "Cc1cccc(NCc2cc3ccccc3nc2Cl)c1", "target entity": "Monascus purpureus", "class assignment": "Criterion not met"}
{"mol": "CN(Cc1cc2ccccc2nc1Cl)c1ccc(F)c(Cl)c1", "target entity": "Monascus purpureus", "class assignment": "Criterion met"}
{"mol": "Fc1ccc(NCc2cc3ccccc3nc2Cl)cc1Cl", "target entity": "Monascus purpureus", "class assignment": "Criterion met"}
{"mol": "CN(Cc1cc2ccccc2nc1Cl)c1ccc(F)cc1", "target entity": "Monascus purpureus", "class assignment": "Criterion met"}
{"mol": "COc1ccc(NCc2cc3ccccc3nc2Cl)cc1", "target entity": "Monascus purpureus", "class assignment": "Criterion not met"}
{"mol": "O=[N+]([O-])c1ccc(NCc2cc3ccccc3nc2Cl)cc1", "target entity": "Monascus purpureus", "class assignment": "Criterion not met"}
{"mol": "Clc1nc2ccccc2cc1CNc1ccccc1", "target entity": "Monascus purpureus", "class assignment": "Criterion not met"}
{"mol": "Clc1ccccc1NCc1cc2ccccc2nc1Cl", "target entity": "Monascus purpureus", "class assignment": "Criterion not met"}
{"mol": "Clc1ccc(NCc2cc3ccccc3nc2Cl)cc1Cl", "target entity": "Monascus purpureus", "class assignment": "Criterion met"}
{"mol": "Cc1ccccc1NCc1cc2ccccc2nc1Cl", "target entity": "Monascus purpureus", "class assignment": "Criterion not met"}
{"mol": "CN(Cc1cc2ccccc2nc1Cl)c1cccc(Cl)c1", "target entity": "Monascus purpureus", "class assignment": "Criterion met"}

====

- System: Monascus purpureus
- measurement notes: Antifungal activity against Monascus purpureus MTCC 369 at 200 ug/ml after 72 hr by cup-plate method
- Type: functional
- experimental setup: MTCC 369, 72 h, read-out: IZ
Parameter threshold = 10 mm. Response is satisfied when zone of inhibition at 200 µg/mL meets or exceeds it, else not satisfied.

{"mol": "Clc1nc2ccccc2cc1CNCc1ccccc1", "class assignment": "not satisfied"}
{"mol": "CN(Cc1cc2ccccc2nc1Cl)c1ccc(Cl)c(Cl)c1", "class assignment": "satisfied"}
{"mol": "CN(Cc1cc2ccccc2nc1Cl)c1ccc(Cl)cc1", "class assignment": "satisfied"}
{"mol": "Clc1cccc(NCc2cc3ccccc3nc2Cl)c1", "class assignment": "not satisfied"}
{"mol": "Clc1nc2ccccc2cc1CNc1ccc(Br)cc1", "class assignment": "not satisfied"}
{"mol": "Cc1ccc(NCc2cc3ccccc3nc2Cl)cc1", "class assignment": "not satisfied"}
